Every entry's value here was drawn from patent US20190152992A1.

Measured pIC50 by item
target: human alpha2A receptors (Homo sapiens); test: cell-based
pIC50: −log10 of the molar value.

Molecule	Reported measurement
CN(C)C(=O)CN1CC(=O)N([C@H]2CCCN(C[C@H]3COc4ccccc4O3)C2)C1=O	< 5.00
CC1CCN([C@H]2CCCN(C[C@H]3COc4ccccc4O3)C2)C1=O (some centres unmarked) [example 97]	< 5.00
O=C1CN(Cc2ccccc2)C(=O)N1[C@H]1CCCN(C[C@H]2COc3ccccc3O2)C1	5.95
O=C1C=C(c2ccccc2)CN1[C@H]1CCCN(C[C@H]2COc3ccccc3O2)C1	< 5.00

Sure, the documented pIC50 for CC1C(=O)N([C@H]2CCCN(C[C@H]3COc4ccccc4O3)C2)C(=O)N1C (some centres unmarked) is < 5.00

Sure, the documented pIC50 for CSc1ncc2c(n1)CN([C@H]1CCCN(C[C@H]3COc4ccccc4O3)C1)C2=O is < 5.00

Sure, the documented pIC50 for O=C1C(=O)N([C@H]2CCCN(C[C@H]3COc4ccccc4O3)C2)C(=O)N1Cc1ccccn1 is < 5.00

Sure, the documented pIC50 for O=C1c2ncsc2CN1[C@H]1CCCN(C[C@H]2COc3ccccc3O2)C1 is < 5.00

Sure, the documented pIC50 for CC1=CC(=O)N([C@H]2CCCN(C[C@H]3COc4ccccc4O3)C2)C1 is < 5.00

Sure, the documented pIC50 for O=C1C(=O)N([C@H]2CCCN(C[C@H]3COc4ccccc4O3)C2)CC1c1ccccc1 (some centres unmarked) is < 5.00

Sure, the documented pIC50 for O=c1[nH]c2ccc(F)cc2n1[C@H]1CCCN(C[C@H]2COc3ccccc3O2)C1 is < 5.00

Sure, the documented pIC50 for O=C1c2cnccc2CN1[C@H]1CCCN(C[C@H]2COc3ccccc3O2)C1 is < 5.00

Sure, the documented pIC50 for O=S1(=O)c2ccccc2CN1[C@H]1CCCN(C[C@H]2COc3ccccc3O2)C1 is < 5.00

* * *

biological target: human alpha2C receptors (Homo sapiens, UniProt P18825); assay: Determination of alpha2C antagonistic activity in vitro (FLIPR calcium assay); conditions: read-out: Alpha 2C Adrenaline IC50; antagonism, cells stimulated with adrenaline; CHO cells stably transfected with human alpha2C, cotransfected with Gα16; intracellular calcium
Property name: IC50 (nM)
Express the result in nM but write the number alone.

Sure, the documented IC50 for O=C1NCCCN1[C@H]1CCCN(C[C@H]2COc3ccccc3O2)C1 [compound 53] is 1.04

* * *

Target: UniProtKB P18825
Sequence (P18825 1-462): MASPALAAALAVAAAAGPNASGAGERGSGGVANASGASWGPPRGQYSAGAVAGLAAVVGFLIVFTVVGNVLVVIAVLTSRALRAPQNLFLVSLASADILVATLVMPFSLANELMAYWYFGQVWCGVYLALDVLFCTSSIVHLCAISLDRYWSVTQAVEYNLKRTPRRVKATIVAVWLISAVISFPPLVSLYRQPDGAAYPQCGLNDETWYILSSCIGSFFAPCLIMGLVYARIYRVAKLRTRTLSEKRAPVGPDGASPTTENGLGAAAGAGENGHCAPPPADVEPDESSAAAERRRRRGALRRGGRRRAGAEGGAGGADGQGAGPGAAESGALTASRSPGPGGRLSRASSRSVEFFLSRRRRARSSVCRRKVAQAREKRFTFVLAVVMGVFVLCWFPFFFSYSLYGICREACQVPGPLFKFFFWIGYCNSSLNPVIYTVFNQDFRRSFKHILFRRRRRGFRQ
Test: Determination of alpha2C antagonistic activity in vitro (FLIPR calcium assay)
Conditions: Alpha 2C Adrenaline Kb, Kb calculated from IC50 with the Cheng-Prusoff equation; adrenaline as agonist; CHO cells, human alpha2C
Property name: Kb (nM)

Please review the entries below; each comes with its answer.
Smiles representation	Kb [nM]
CC1=CC(=O)N([C@H]2CCCN(C[C@H]3COc4ccccc4O3)C2)C1	0.232
O=C1c2ccccc2C(=O)N1[C@H]1CCCN(C[C@H]2COc3ccccc3O2)C1	0.006
CC1(C)CCN([C@H]2CCCN(C[C@H]3COc4ccccc4O3)C2)C1=O	0.203

I = CN1C(=O)N([C@H]2CCCN(C[C@H]3COc4ccccc4O3)C2)C(=O)C12CC2
II = COc1ccc2nc(C)n([C@H]3CCCN(C[C@H]4COc5ccccc5O4)C3)c2n1
III = CC(C)N1C(=O)N([C@H]2CCCN(C[C@H]3COc4ccccc4O3)C2)C(=O)C1(C)C
IV = CC1(C)CC(=O)N([C@H]2CCCN(C[C@H]3COc4ccccc4O3)C2)C1
Input line: With regard to Kb, arrange the entries in ascending order, please. Reply format: the labels, ordered as requested.
Output line: IV, III, I, II
(IV: 0.03 nM, III: 0.1 nM, I: 0.354 nM, II: 5.64 nM)

* * *

Measured pIC50 by item
Target: human alpha2A receptors (Homo sapiens, UniProt P08913)
Sequence (P08913 1-465): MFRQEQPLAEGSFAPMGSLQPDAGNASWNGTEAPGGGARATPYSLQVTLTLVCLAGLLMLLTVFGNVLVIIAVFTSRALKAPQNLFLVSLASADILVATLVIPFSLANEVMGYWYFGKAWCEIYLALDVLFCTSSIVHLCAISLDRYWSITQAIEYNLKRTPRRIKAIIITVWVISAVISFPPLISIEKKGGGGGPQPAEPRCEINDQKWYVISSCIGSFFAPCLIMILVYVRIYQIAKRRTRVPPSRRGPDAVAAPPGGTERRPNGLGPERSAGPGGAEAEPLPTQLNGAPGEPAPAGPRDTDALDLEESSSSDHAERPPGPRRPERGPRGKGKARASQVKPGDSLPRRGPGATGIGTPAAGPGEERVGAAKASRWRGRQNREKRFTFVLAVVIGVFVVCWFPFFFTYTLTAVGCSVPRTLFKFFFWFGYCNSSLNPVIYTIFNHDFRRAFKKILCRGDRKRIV
Experiment: cell-based
pIC50: −log10 of the molar value.

Molecule	pIC50
Cc1nc2cc(F)c(F)cc2n1[C@H]1CCCN(C[C@H]2COc3ccccc3O2)C1	< 5.00
CN1CC(=O)N([C@H]2CCCN(C[C@H]3COc4ccccc4O3)C2)C1=O	< 5.00
O=c1n(-c2ccccc2)c2ccccc2n1[C@H]1CCCN(C[C@H]2COc3ccccc3O2)C1	< 5.00
CC1CCN([C@H]2CCCN(C[C@H]3COc4ccccc4O3)C2)C1=O (single isomer, unassigned; diastereomer 1) [example 98]	< 5.00

Okay, now this molecule:
Sure, the documented pIC50 for O=C1c2ncccc2CN1[C@H]1CCCN(C[C@H]2COc3ccccc3O2)C1 is < 5.00

* * *

Molecular target: human alpha2C receptors (Homo sapiens, UniProt P18825)
Sequence (P18825 1-462): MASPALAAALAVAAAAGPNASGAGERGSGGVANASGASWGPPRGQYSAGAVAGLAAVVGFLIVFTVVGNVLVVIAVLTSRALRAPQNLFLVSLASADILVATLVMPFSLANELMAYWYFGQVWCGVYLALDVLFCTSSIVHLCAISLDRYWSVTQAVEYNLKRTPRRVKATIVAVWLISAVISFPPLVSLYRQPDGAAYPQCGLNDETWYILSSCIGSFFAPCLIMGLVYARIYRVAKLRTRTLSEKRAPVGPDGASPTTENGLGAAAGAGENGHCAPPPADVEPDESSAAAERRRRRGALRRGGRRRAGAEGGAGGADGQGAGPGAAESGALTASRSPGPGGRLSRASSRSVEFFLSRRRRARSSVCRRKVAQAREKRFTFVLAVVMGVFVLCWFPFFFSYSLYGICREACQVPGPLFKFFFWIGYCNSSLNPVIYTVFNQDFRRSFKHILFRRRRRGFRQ
Assay: Determination of alpha2C antagonistic activity in vitro (FLIPR calcium assay)
Details: Alpha 2C Adrenaline Kb, Kb calculated from IC50 with the Cheng-Prusoff equation; adrenaline as agonist; CHO cells, human alpha2C
Property name: Kb (nM)

Please review the entries below; each comes with its answer.
Molecule	Kb (nM)
CC1CCN([C@H]2CCCN(C[C@H]3COc4ccccc4O3)C2)C1=O (some centres unmarked) [example 97]	0.1
CC1CCN([C@H]2CCCN(C[C@H]3COc4ccccc4O3)C2)C1=O (single isomer, unassigned; diastereomer 2) [example 99]	0.02
CC(C)CN1C(=O)C(=O)N([C@H]2CCCN(C[C@H]3COc4ccccc4O3)C2)C1=O	0.045

I = O=C1CN(C2CCCC2)C(=O)N1[C@H]1CCCN(C[C@H]2COc3ccccc3O2)C1
II = CN1C(=O)C(=O)N([C@H]2CCCN(C[C@H]3COc4ccccc4O3)C2)C1=O
Input line: # query: argmin of Kb over I and II Indicate your choice by writing its label.
Output line: I
(I: 0.01 nM, II: 0.438 nM)

I = O=C1N(c2ccccc2)CCN1[C@H]1CCCN(C[C@H]2COc3ccccc3O2)C1
II = Cc1nc2cccnc2n1[C@H]1CCCN(C[C@H]2COc3ccccc3O2)C1
III = Cc1nc2ncccc2n1[C@H]1CCCN(C[C@H]2COc3ccccc3O2)C1
Input line: With regard to Kb, arrange the entries in ascending order, please. Reply format: the labels, ordered as requested.
Output line: II, III, I
